Quick list: protein stability index per entry.
B1: WDFY1 (parent)
chain: FWNIKQMWDTKTLGLRQHHCRKCG

Variants of: B1
Test: protein stability index of a GFP-peptide fusion (GPS, HEK-293T) (PSI 1-6); higher = more stable;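 note: lentivirally expressed fusions sorted by FACS into six bins by GFP to DsRed ratio, PSI derived from sequencing read proportions per bin multiplied by bin number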
Details: c terminus: a fixed tail appended
Answer with the value's number alone.

Worked set:
| Mutation Spec | Endpoint | Recorded Value |
| --- | --- | --- |
| H19M | protein stability index | 1.92 |
| T12S | protein stability index | 2.14 |
| G14T | protein stability index | 2.68 |
| H18R | protein stability index | 2.21 |
| G14K | protein stability index | 1.79 |

Continue with the next variant.
Request: Fill in the blank: the reported protein stability index of `F1Q` is ____.
Result: 2.31
